// reported Her2 level for each item listed
- System Under Test: Receptor tyrosine-protein kinase erbB-2 (Homo sapiens) (UniProt P04626)
- Sequence (P04626 whole entry, looked up): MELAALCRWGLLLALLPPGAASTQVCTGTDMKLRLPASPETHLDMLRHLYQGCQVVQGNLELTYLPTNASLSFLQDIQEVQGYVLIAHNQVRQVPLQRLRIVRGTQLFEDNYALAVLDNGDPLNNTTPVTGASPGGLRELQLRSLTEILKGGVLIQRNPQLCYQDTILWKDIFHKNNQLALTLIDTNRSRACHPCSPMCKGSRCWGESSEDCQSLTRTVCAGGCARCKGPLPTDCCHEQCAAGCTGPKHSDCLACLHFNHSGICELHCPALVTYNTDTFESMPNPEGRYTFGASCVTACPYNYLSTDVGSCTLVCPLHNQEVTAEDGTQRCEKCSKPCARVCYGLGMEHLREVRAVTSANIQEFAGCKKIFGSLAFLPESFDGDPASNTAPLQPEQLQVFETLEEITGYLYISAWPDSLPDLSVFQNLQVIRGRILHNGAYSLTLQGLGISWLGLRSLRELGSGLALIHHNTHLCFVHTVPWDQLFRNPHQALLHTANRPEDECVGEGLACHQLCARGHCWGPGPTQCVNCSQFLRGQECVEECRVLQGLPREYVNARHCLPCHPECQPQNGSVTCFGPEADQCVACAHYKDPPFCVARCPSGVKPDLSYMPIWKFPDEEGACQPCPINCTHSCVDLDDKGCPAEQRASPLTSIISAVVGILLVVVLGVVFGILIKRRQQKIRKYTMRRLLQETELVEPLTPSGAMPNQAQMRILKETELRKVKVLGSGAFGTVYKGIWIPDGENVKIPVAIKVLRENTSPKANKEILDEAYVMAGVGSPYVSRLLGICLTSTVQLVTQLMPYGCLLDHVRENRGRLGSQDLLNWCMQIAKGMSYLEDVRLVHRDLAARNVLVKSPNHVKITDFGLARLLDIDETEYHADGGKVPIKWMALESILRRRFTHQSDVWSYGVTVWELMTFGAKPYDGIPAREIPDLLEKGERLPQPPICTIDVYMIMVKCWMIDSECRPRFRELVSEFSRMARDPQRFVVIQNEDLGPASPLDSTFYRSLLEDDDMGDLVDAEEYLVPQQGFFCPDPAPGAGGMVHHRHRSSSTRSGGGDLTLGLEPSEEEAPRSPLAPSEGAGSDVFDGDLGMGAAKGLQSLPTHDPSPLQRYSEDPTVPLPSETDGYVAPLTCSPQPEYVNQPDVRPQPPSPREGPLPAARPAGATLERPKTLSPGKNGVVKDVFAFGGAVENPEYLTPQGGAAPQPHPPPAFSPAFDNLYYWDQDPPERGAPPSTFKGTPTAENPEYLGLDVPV
- Measurement Protocol: reducers of endogenous Her2 protein level, primary screen, SKBR3 breast tumor cells, AlphaScreen, ATP viability (AID 461);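 also: lower value means less Her2 protein in the cells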
- Study Conditions: 18-24 h, at 10 µM, stronger effect = lower value
Answer in %, number only, no unit symbol.

Some molecules with recorded Her2 level:
Molecule	System Under Test	Readout Kind	Readout Units	Reported
COc1ccccc1N1CCN(C(=O)c2ccc(S(=O)(=O)N3CCCCCC3)cc2)CC1	Receptor tyrosine-protein kinase erbB-2 (Homo sapiens) (UniProt P04626)	Her2 level	%	98.5
Cc1ccc(S(=O)(=O)N2CCC(C(=O)NCCN3CCCCCC3)CC2)cc1	Receptor tyrosine-protein kinase erbB-2 (Homo sapiens) (UniProt P04626)	Her2 level	%	93.5
CS(=O)(=O)Nc1ccc(C(=O)NCc2ccco2)cc1	Receptor tyrosine-protein kinase erbB-2 (Homo sapiens) (UniProt P04626)	Her2 level	%	106

Request: # get_value(readout='Her2 level', item= COc1cccc(NC(=O)N2CCN(C(=O)C(Cc3ccc(OC)c(OC)c3)NC(C)=O)CC2)c1 (stereo unspecified) )
Result: 124

Request: Entry `CCOC(=O)CC(=O)Nc1c(C)cc(C)cc1C` please
Result: 90.5

Request: One more molecule: `CCN(CCCNC(=O)c1cn(CC)c2ccc(S(=O)(=O)N(C)C)cc2c1=O)c1cccc(C)c1`
Result: 74.5

Request: `Cc1cccc2sc(NC(=O)Cn3cccc3)nc12`
Result: 93.5

Request: Can you handle `Cc1ccccc1-n1nnnc1SCC(=O)Nc1ccc(S(=O)(=O)N2CCCC2)cc1` next?
Result: 100

Request: Consider next the molecule `CCOc1ccc(NC(=O)CSc2nnnn2CC(=O)O)cc1` in the same way.
Result: 98

Request: // repeat for `CCc1nc(N)c(C#N)c(-c2ccc(OC)c(OC)c2)c1C` and report
Result: 93

Request: Let us now turn to CCCCC(CC)C(=O)Nc1ccc(Cl)cn1 (stereo unspecified)
Result: 102
